- ASSAY_TARGET: mouse Cdt1^172-368 (mouse) (UniProt Q8R4E9)
- Sequence (Q8R4E9 172-368): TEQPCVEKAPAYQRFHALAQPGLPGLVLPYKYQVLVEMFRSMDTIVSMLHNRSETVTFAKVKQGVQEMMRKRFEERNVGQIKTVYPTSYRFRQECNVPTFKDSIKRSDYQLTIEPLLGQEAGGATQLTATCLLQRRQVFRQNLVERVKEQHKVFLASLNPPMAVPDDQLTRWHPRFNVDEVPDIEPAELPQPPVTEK
- METHOD_DESCRIPTION: ITC; MicroCal ITC200, 18 °C; 20 mM Na-HEPES pH 7.5, 300 mM NaCl, 7 mM β-mercaptoethanol; 17 injections of Geminin (WT 0.432 mM, AWA 0.297 mM) into 200 µL Cdt1 (0.044 mM)
PROPERTY_NAME: pKd
# pKd = -log10(concentration in molar units)

The reported value for mouse Geminin^79-157 AWA (domain or fragment) TQEAFDLISKENPSSQAWAEVAEQRRKALYEALKENEKLHKEIEQKDSEIARLRKENKDLAEVAEHVQYMAEVIERLSN in terms of pKd is 6.60
